- MEASURED_TARGET: Sut1 (UniProt P53032)
- Sequence: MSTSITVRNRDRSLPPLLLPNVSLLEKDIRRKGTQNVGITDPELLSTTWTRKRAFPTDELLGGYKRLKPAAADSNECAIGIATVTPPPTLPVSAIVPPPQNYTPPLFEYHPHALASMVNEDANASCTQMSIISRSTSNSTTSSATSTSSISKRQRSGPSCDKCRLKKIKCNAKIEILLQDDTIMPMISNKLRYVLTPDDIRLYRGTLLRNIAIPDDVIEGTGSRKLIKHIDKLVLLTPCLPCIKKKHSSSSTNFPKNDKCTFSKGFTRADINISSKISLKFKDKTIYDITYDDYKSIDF
- TEST_NAME: PBM E-score (8-mer binding enrichment) (E-score (-0.5 to 0.5)); higher = stronger / more preferred TF binding
- TEST_SETTINGS: protein concentration: 200 nM; construct: GST-full length
In all, about 33,000 sequences were measured (“E-score (-0.5 to 0.5)”: median about -0.017, highest 2% from about 0.3 on). The sample holds the highest values, similar sequences and a random draw of the others, so the mix is not that of the screen.
# PBM E-score per record follows
The answer should be written as a number, with no unit following it.

[
  {
    "RESIDUE_STRING": "ATCTCCGA",
    "ENDPOINT_LABEL": "PBM E-score",
    "ASSAY_RESULT": 0.477
  },
  {
    "RESIDUE_STRING": "ATTCCGCC",
    "ENDPOINT_LABEL": "PBM E-score",
    "ASSAY_RESULT": 0.214
  }
]

Reported PBM E-score ( GTCTCCGA ) = 0.338

Reported PBM E-score ( TATGCTGA ) = 0.175

Reported PBM E-score ( AGTCCGCC ) = 0.375

Reported PBM E-score ( ATCTCCGG ) = 0.478

Reported PBM E-score ( ATCTCCGC ) = 0.399

Reported PBM E-score ( GATATATC ) = 0.183

Reported PBM E-score ( ATTGTATG ) = 0.175

Reported PBM E-score ( CATATAAA ) = 0.15

====

- MEASURED_TARGET: Sut1 (UniProt P53032)
- Sequence: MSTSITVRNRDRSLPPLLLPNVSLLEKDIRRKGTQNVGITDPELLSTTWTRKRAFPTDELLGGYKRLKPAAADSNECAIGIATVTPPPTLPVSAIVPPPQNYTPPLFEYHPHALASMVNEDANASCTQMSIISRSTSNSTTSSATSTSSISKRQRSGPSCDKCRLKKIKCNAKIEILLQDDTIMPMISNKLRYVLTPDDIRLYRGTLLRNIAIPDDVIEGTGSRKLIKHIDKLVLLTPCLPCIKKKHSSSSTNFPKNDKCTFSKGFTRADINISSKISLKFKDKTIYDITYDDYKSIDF
- TEST_NAME: PBM E-score (8-mer binding enrichment) (E-score (-0.5 to 0.5)); higher = stronger / more preferred TF binding
- TEST_SETTINGS: protein concentration: 200 nM; construct: GST-full length
The full ranking holds about 33,000 sequences; the median of “E-score (-0.5 to 0.5)” is about -0.017, and the highest 2% start at about 0.3. The sample as a whole holds a higher share of the highest values than the screen did.
Mark yes for reported PBM E-score of 0.03 or greater; mark no for anything smaller.

[
  {
    "RESIDUE_STRING": "CTTGAAAA",
    "ASSIGNED_CLASS": "yes"
  }
]

// inclusive: PBM E-score at least 0.03? input: GAAAGGGC no

// inclusive: PBM E-score at least 0.03? input: ATGCGCTA no

// inclusive: PBM E-score at least 0.03? input: ACGTATAG yes

// inclusive: PBM E-score at least 0.03? input: ATTGAAAA yes

// inclusive: PBM E-score at least 0.03? input: CATAGCCC no

// inclusive: PBM E-score at least 0.03? input: TTTGAAAA yes
